B1: library; numbered along this chain (parent)
chain: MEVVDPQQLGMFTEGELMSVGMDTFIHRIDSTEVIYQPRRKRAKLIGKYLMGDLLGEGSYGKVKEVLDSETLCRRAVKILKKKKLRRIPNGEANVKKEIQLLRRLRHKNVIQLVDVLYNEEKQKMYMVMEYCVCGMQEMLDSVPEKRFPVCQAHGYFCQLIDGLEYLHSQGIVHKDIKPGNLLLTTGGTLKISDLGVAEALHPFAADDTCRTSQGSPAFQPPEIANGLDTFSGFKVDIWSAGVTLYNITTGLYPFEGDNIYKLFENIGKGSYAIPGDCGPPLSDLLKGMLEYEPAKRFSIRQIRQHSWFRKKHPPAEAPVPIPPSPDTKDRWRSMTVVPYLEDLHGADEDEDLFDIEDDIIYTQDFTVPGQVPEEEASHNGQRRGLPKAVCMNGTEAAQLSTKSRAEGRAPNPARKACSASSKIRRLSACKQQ

# Variants of: B1
# protocol.description: STK11 functional score (HeLa growth suppression), rescaled enrichment; synonymous median = 1, nonsense median = 0 (normalised score)
# assay.setup: with HeLa; variant type: missense
Entries whose STK11 functional score is below 1 take 1.0; entries at or above 1 take 0.0.

[[record]]
change = "P38H"
qualitative_label = 0.0

[[record]]
change = "D348I"
qualitative_label = 0.0

[[record]]
change = "A417G"
qualitative_label = 0.0

[[record]]
change = "E165W"
qualitative_label = 1.0

[[record]]
change = "R75I"
qualitative_label = 0.0

[[record]]
change = "N90G"
qualitative_label = 0.0

[[record]]
change = "K146G"
qualitative_label = 1.0

[[record]]
change = "S69L"
qualitative_label = 0.0

[[record]]
change = "A273G"
qualitative_label = 1.0

[[record]]
change = "R28L"
qualitative_label = 1.0

[[record]]
change = "S69R"
qualitative_label = 0.0

[[record]]
change = "G187I"
qualitative_label = 0.0

[[record]]
change = "P413N"
qualitative_label = 0.0

[[record]]
change = "S240E"
qualitative_label = 0.0

[[record]]
change = "L386H"
qualitative_label = 1.0

[[record]]
change = "Q382H"
qualitative_label = 0.0

[[record]]
change = "F204Y"
qualitative_label = 1.0

[[record]]
change = "H168G"
qualitative_label = 1.0

[[record]]
change = "E145F"
qualitative_label = 1.0

[[record]]
change = "C132Y"
qualitative_label = 1.0

[[record]]
change = "P387E"
qualitative_label = 0.0

[[record]]
change = "F204C"
qualitative_label = 1.0

[[record]]
change = "R211C"
qualitative_label = 0.0

[[record]]
change = "L140S"
qualitative_label = 1.0

[[record]]
change = "W239E"
qualitative_label = 1.0

[[record]]
change = "G10L"
qualitative_label = 0.0

[[record]]
change = "S401R"
qualitative_label = 0.0

[[record]]
change = "I360M"
qualitative_label = 1.0

[[record]]
change = "V110A"
qualitative_label = 1.0

[[record]]
change = "H168D"
qualitative_label = 1.0

[[record]]
change = "S69M"
qualitative_label = 1.0

[[record]]
change = "C278P"
qualitative_label = 0.0

[[record]]
change = "P326C"
qualitative_label = 0.0

[[record]]
change = "I274Y"
qualitative_label = 0.0

[[record]]
change = "Q137R"
qualitative_label = 1.0

[[record]]
change = "D352S"
qualitative_label = 0.0

[[record]]
change = "G233C"
qualitative_label = 0.0

[[record]]
change = "P38T"
qualitative_label = 1.0

[[record]]
change = "T209G"
qualitative_label = 0.0

[[record]]
change = "L50A"
qualitative_label = 0.0

[[record]]
change = "E223W"
qualitative_label = 1.0

[[record]]
change = "Y126S"
qualitative_label = 1.0

[[record]]
change = "Q433R"
qualitative_label = 1.0

[[record]]
change = "G47S"
qualitative_label = 0.0

[[record]]
change = "R74I"
qualitative_label = 0.0

[[record]]
change = "I79C"
qualitative_label = 1.0

[[record]]
change = "V3W"
qualitative_label = 1.0

[[record]]
change = "L341N"
qualitative_label = 0.0

[[record]]
change = "M139C"
qualitative_label = 0.0

[[record]]
change = "F354G"
qualitative_label = 0.0

[[record]]
change = "L102Q"
qualitative_label = 0.0

[[record]]
change = "A417C"
qualitative_label = 0.0

[[record]]
change = "E291I"
qualitative_label = 0.0

[[record]]
change = "K48V"
qualitative_label = 0.0

[[record]]
change = "A76Y"
qualitative_label = 1.0

[[record]]
change = "T71G"
qualitative_label = 0.0

[[record]]
change = "A295C"
qualitative_label = 0.0

[[record]]
change = "F309S"
qualitative_label = 1.0

[[record]]
change = "D30Y"
qualitative_label = 1.0

[[record]]
change = "E120Y"
qualitative_label = 1.0

[[record]]
change = "S216Y"
qualitative_label = 1.0

[[record]]
change = "S169Y"
qualitative_label = 0.0

[[record]]
change = "P314R"
qualitative_label = 0.0

[[record]]
change = "N226T"
qualitative_label = 0.0

[[record]]
change = "T209A"
qualitative_label = 0.0

[[record]]
change = "T367L"
qualitative_label = 0.0

[[record]]
change = "A205Q"
qualitative_label = 0.0

[[record]]
change = "G233W"
qualitative_label = 0.0

[[record]]
change = "G257E"
qualitative_label = 0.0

[[record]]
change = "R333A"
qualitative_label = 0.0

[[record]]
change = "S232K"
qualitative_label = 0.0

[[record]]
change = "T185S"
qualitative_label = 1.0

[[record]]
change = "M22R"
qualitative_label = 0.0

[[record]]
change = "P222S"
qualitative_label = 0.0

[[record]]
change = "Q37I"
qualitative_label = 0.0

